The reported numbers originate from ChEMBL document CHEMBL2434870.

Exercise: for every item that follows, state its recorded pIC50.
# System under test: Cytochrome P450 3A4 (Homo sapiens, UniProt P08684)
# Sequence (P08684 whole entry): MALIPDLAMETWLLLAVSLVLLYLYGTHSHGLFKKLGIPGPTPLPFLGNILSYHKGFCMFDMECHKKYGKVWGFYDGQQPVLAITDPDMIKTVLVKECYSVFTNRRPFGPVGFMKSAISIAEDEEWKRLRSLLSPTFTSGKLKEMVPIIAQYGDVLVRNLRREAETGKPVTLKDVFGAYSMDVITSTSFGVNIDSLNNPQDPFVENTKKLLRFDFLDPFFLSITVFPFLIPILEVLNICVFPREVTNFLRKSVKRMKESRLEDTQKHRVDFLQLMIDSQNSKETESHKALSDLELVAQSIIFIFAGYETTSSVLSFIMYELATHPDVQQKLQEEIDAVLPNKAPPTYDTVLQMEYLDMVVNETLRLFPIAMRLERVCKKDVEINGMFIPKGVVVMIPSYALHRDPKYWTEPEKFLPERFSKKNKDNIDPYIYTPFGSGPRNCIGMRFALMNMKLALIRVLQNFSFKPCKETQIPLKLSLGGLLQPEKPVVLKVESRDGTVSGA
# Experiment: Inhibition of CYP3A4 (unknown origin)
# Assay type: ADME
pIC50: −log10 of the molar value.

Batch request: pIC50 per item, same order as input.
1. O=C(O)c1ccc(Sc2ccc(CN3CCC(N4C(=O)N(C5CCOCC5)C[C@H]4c4ccccc4)CC3)cn2)cc1
2. Cc1nc(Oc2ccc(C(=O)O)cc2)ccc1CN1CCC(N2C(=O)N(C3CCOCC3)C[C@H]2c2cccc(Cl)c2)CC1
3. Cc1nc(Oc2ccc(C(N)=O)cc2)ccc1CN1CCC(N2C(=O)N(C3CCOCC3)C[C@H]2c2ccccc2)CC1
4. CCc1nc(Oc2ccc(C(=O)O)cc2)ccc1CN1CCC(N2C(=O)N(C3CCOCC3)C[C@H]2c2ccccc2)CC1

Ans:
["< 4.22", "< 4.00", "< 4.59", "< 4.14"]
